# Species on record: Rattus norvegicus
# method-description: Open TG-GATES - Regimen: Single
# Type: toxicity, organism-based, Sprague-Dawley
# Parameters: regimen Single, gender Male, age 6 weeks
# protocol-conditions: in vivo, po, 0 mg/kg, 3 h, tissue Plasma, route gavage, dose level Control
measured-quantity: gamma-GTP

1. Cc1cccc(Nc2cc(Cl)nc(SCC(=O)O)n2)c1C [PIRINIXIC ACID]	1.2 IU/L
2. O=C1CN(/N=C/c2ccc(-c3ccc([N+](=O)[O-])cc3)o2)C(O)=N1 [DANTROLENE]	2.2 IU/L
3. COc1ccc(O)c(C(C)(C)C)c1.COc1ccc(O)cc1C(C)(C)C [BUTYLATED HYDROXYANISOLE]	1.2 IU/L
4. COc1ccc(Cl)cc1C(=O)NCCc1ccc(S(=O)(=O)NC(=O)NC2CCCCC2)cc1 [GLYBURIDE]	0.8 IU/L
